System: HeLa
PROTOCOL TEXT: Cytotoxicity against human HeLa cells assessed as inhibition of colony formation after 5 to 8 days by colony assay
Format: functional, cell-based
pIC50: −log10 of the molar value.
Outcome label depends on pIC50 relative to 6: at/above gives Satisfied, below gives Not satisfied.

CHEMICAL SMILES: COc1cc(-c2c3c4cc(OC)c(O)cc4oc(=O)c3n3ccc4cc(O)c(OC)cc4c23)ccc1O
CLASS ASSIGNMENT: Satisfied
--
CHEMICAL SMILES: COc1cc2c(cc1O)oc(=O)c1c2c(-c2ccc(O)cc2)c2c3cc(OC)c(O)cc3ccn21
CLASS ASSIGNMENT: Satisfied
--
CHEMICAL SMILES: COc1cc(-c2c3c4ccccc4oc(=O)c3n3ccc4cc(O)c(OC)cc4c23)ccc1O
CLASS ASSIGNMENT: Not satisfied
--
CHEMICAL SMILES: COc1cc2c(cc1O)oc(=O)c1c2c(-c2ccc(OC)c(OC)c2)c2c3cc(OC)c(OC)cc3ccn21
CLASS ASSIGNMENT: Not satisfied
--
CHEMICAL SMILES: COc1cccc(-c2c3c4cc(OC)c(O)cc4oc(=O)c3n3ccc4cc(O)c(OC)cc4c23)c1
CLASS ASSIGNMENT: Satisfied
--
CHEMICAL SMILES: CC(=O)Oc1ccc(-c2c3c4cc(OC(C)=O)c(OC(C)=O)cc4oc(=O)c3n3ccc4cc(OC(C)=O)c(OC(C)=O)cc4c23)cc1OC(C)=O
CLASS ASSIGNMENT: Not satisfied
--
CHEMICAL SMILES: COc1cc(-c2c3c4ccc(O)cc4oc(=O)c3n3ccc4cc(O)c(OC)cc4c23)ccc1O
CLASS ASSIGNMENT: Satisfied
--
CHEMICAL SMILES: O=c1oc2cc(O)c(O)cc2c2c(-c3ccc(O)c(O)c3)c3c4cc(O)c(O)cc4ccn3c12
CLASS ASSIGNMENT: Not satisfied
